Every entry's value here was drawn from PubChem BioAssay (NCI).

Catalogue of molecules with associated TGI
System: HOP-92 NSCLC
Experiment: NCI tumour cell line growth inhibition, 48 h

O=S(=O)(O)c1ccc2cccc(N=Nc3c(O)ccc4ccccc34)c2c1 :: > 100 µM
CCCC(=O)OC1C(C(O)CO)OC2OC(C)(C)OC21 (centres undefined) :: > 100 µM
O=C(Cc1ccccc1)NNc1nc(NNC(=O)c2ccncc2)nc(Nc2ccc([N+](=O)[O-])cc2)n1 :: > 10 µM

Moving on to another molecule below.
Give TGI for `CC[C@H]1C=CCC[C@@]2(C[C@@H]3CC[C@@H]4[C@H](C(=O)OCCCCCCCCCCCCCCCC(=O)O)[C@]5(CCC[C@@H](C)O5)NC(=[N+]34)N2)O1` 0.615 µM
